test: Inhibition of Saccharomyces cerevisiae alcohol dehydrogenase measured every 5 mins for 2 hrs by spectrophotometry
Reported Metric: IC50 (µM)

- C[C@@H]1O[C@@H](OC[C@H]2O[C@@H](Oc3c(-c4ccc(O)c(O)c4)oc4cc(O)cc(O)c4c3=O)[C@H](OC(=O)/C=C/c3ccc(O)cc3)[C@@H](O[C@@H]3OC[C@H](O)[C@H](O)[C@H]3O)[C@@H]2O)[C@H](O)[C@H](O)[C@H]1O [CAMELLIQUERCETISIDE C]: 46.7
- C[C@@H]1O[C@@H](OC[C@H]2O[C@@H](Oc3c(-c4ccc(O)c(O)c4)oc4cc(O)cc(O)c4c3=O)[C@H](OC(=O)/C=C/c3ccc(O)cc3)[C@@H](O)[C@@H]2O)[C@H](O)[C@H](O[C@@H]2O[C@H](CO)[C@@H](O)[C@H](O)[C@H]2O)[C@H]1O [CAMELLIQUERCETISIDE B]: 13.7
- COc1cc(C(=O)O[C@@H]2Cc3c(O)cc(O)cc3O[C@@H]2c2ccc(O)c(O)c2)cc(O)c1O: 44.1
- C[C@@H]1O[C@@H](OC[C@H]2O[C@@H](Oc3c(-c4ccc(O)c(O)c4)oc4cc(O)cc(O)c4c3=O)[C@H](O)[C@@H](O)[C@@H]2O)[C@H](O)[C@H](O[C@@H]2O[C@H](CO)[C@@H](O)[C@H](O)[C@H]2O)[C@H]1O: 19.7
- C[C@@H]1O[C@@H](OC[C@H]2O[C@@H](Oc3c(-c4ccc(O)c(O)c4)oc4cc(O)cc(O)c4c3=O)[C@H](O)[C@@H](O)[C@H]2O)[C@H](O)[C@H](O[C@@H]2O[C@H](CO)[C@@H](O)[C@H](O)[C@H]2O)[C@H]1O: 41
- O=C(O[C@@H]1Cc2c(O)cc(O)cc2O[C@@H]1c1cc(O)c(O)c(O)c1)c1cc(O)c(O)c(O)c1 [EPIGALOCATECHIN GALLATE]: 42.8
- Cn1c(=O)c2c(ncn2C)n(C)c1=O: 197
- O=C(O[C@@H]1Cc2c(O)cc(O)cc2O[C@@H]1c1ccc(O)cc1)c1cc(O)c(O)c(O)c1: 44.3
- C[C@@H]1O[C@@H](OC[C@H]2O[C@@H](Oc3c(-c4ccc(O)cc4)oc4cc(O)cc(O)c4c3=O)[C@H](O)[C@@H](O)[C@@H]2O)[C@H](O)[C@H](O)[C@H]1O [NICOTIFLOROSIDE]: 40.4
- O=c1c(O[C@@H]2O[C@H](CO)[C@H](O)[C@H](O)[C@H]2O)c(-c2cc(O)c(O)c(O)c2)oc2cc(O)cc(O)c12: 18.2
- O=C(O[C@@H]1Cc2c(O)cc(O)cc2O[C@@H]1c1ccc(O)c(O)c1)c1cc(O)c(O)c(O)c1 [EPICATECHIN GALLATE]: 65.5
- O=C(/C=C/c1ccc(O)cc1)O[C@@H]1Cc2c(O)cc(O)cc2O[C@@H]1c1cc(O)c(O)c(O)c1: 8
- C[C@@H]1O[C@@H](OC[C@H]2O[C@@H](Oc3c(-c4ccc(O)c(O)c4)oc4cc(O)cc(O)c4c3=O)[C@H](OC(=O)/C=C/c3ccc(O)cc3)[C@@H](O[C@@H]3OC[C@H](O)[C@H](O)[C@H]3O)[C@@H]2O)[C@H](O)[C@H](O[C@@H]2O[C@H](CO)[C@@H](O)[C@H](O)[C@H]2O)[C@H]1O [CAMELLIQUERCETISIDE A]: 17.3
- O=C(/C=C\c1ccc(O)cc1)O[C@@H]1Cc2c(O)cc(O)cc2O[C@@H]1c1cc(O)c(O)c(O)c1: 22.1
- CCN(CC)C(=S)SSC(=S)N(CC)CC: 248
- O=c1c(O[C@@H]2O[C@H](CO)[C@H](O)[C@H](O)[C@H]2O)c(-c2ccc(O)cc2)oc2cc(O)cc(O)c12: 70.3
- O=c1c(O[C@@H]2O[C@H](CO)[C@@H](O)[C@H](O)[C@H]2O)c(-c2cc(O)c(O)c(O)c2)oc2cc(O)cc(O)c12: 19.9
- C[C@@H]1O[C@@H](OC[C@H]2O[C@@H](Oc3c(-c4ccc(O)c(O)c4)oc4cc(O)cc(O)c4c3=O)[C@H](OC(=O)/C=C/c3ccc(O)cc3)[C@@H](O)[C@@H]2O)[C@H](O)[C@H](O)[C@H]1O [CAMELLIQUERCETISIDE D]: 41.5
- Oc1cc(O)c2c(c1)O[C@H](c1ccc(O)c(O)c1)[C@@H](O)C2: 21.1
- Oc1cc(O)c2c(c1)O[C@H](c1cc(O)c(O)c(O)c1)[C@H](O)C2 [EPIGALLOCATECHIN]: 16.5
- C[C@@H]1O[C@@H](OC[C@H]2O[C@@H](Oc3c(-c4ccc(O)cc4)oc4cc(O)cc(O)c4c3=O)[C@H](O)[C@@H](O)[C@H]2O)[C@H](O)[C@H](O[C@@H]2O[C@H](CO)[C@@H](O)[C@H](O)[C@H]2O)[C@H]1O: 17.6
